Ref: paper PMC4593655

List of cellular lines with 50% growth inhibition at submicromolar concentrations values.
Tested on: NCI full panel of 60 cell lines
assay: NCI 5-dose assay, full panel overview
Type: cell-based, human
condition parameters: number of cell lines of those tested

Query: Please give measured cellular lines with 50% growth inhibition at submicromolar concentrations of the following entry: NC(=O)c1cc(Cl)ccc1NC(=O)COc1ccccc1 [Compound 17f, 5-Chloro-2-(2-phenoxyacetamido)benzamide]
Response: 3 of 57

Query: Quickly give me recorded cellular lines with 50% growth inhibition at submicromolar concentrations for NC(=O)c1cc(I)ccc1NC(=O)COc1ccccc1 [Compound 17j, 5-Iodo-2-(2-phenoxyacetamido)benzamide]
Response: 44 of 56

Query: Note down cellular lines with 50% growth inhibition at submicromolar concentrations recorded for COc1ccc(NC(=O)COc2ccccc2)c(C(N)=O)c1 [Compound 17r]
Response: 30 of 56

Further cases:
Query: Output cellular lines with 50% growth inhibition at submicromolar concentrations of COc1cc(NC(=O)COc2ccccc2)c(C(N)=O)cc1OC [Compound 17u]
Response: 26 of 58
